Test: Thermodynamic solubility
Type: physicochemical
Details: 10% PEG400 in water, aqueous with cosolvent or surfactant or cyclodextrin, thermodynamic from solid
observed property: solubility thermodynamic

Asked: // query solubility thermodynamic value for entry N#Cc1ccc(C(F)(c2ccc(C#N)cc2)n2cncn2)cc1 [Form A leflutrozole]
Given back: < 30 µg/mL

----------
Assay: Thermodynamic solubility
Type: physicochemical
Conditions: polyethylene glycol 400, organic solvent or mixture, thermodynamic from solid
observed property: solubility thermodynamic (µg/mL)
Answer with a number only, understood to be in µg/mL.

Asked: Request the reported solubility thermodynamic associated with N#Cc1ccc(C(F)(c2ccc(C#N)cc2)n2cncn2)cc1 [Form A leflutrozole]
Given back: 6230
